In this section, each of the variants is paired with its reported folding stability dG.
B1: HEEH_KT_rd6_0007 (parent)
chain: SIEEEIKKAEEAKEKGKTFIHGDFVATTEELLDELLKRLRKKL

Variants of: B1
Test: folding stability dG (cDNA display proteolysis); higher = more stable
Settings: PBS, room temperature
// note: answer is a bare numeric in kcal/mol

L32D
0.374
K15A
1.33
F19P
0.637
A12L
0.688
L31M
1.65

Short answer for R38K : folding stability dG was 1.02

Short answer for A26E : folding stability dG was 0.506

Short answer for L43V : folding stability dG was 0.562

Short answer for E14M : folding stability dG was 1.42

Short answer for E30K : folding stability dG was 1.24

Short answer for G16Y : folding stability dG was 1.12
